Test system: BT-549 breast
Test: NCI-60 one-dose screen, 48 h
Conditions: 10 µM unless noted
Procedure: Growth inhibition of the BT-549 human tumor cell line is measured as a screen for anti-cancer activity. Cells are grown in 96 well plates and exposed to the test compound for 48 hours. Compounds are tested at a single concentration, which is 10^-5 M for most compounds. The reported endpoint is percent growth (GI% or GIPRCNT), where numbers from 0 - 100% represent growth inhibition, and numbers from -100% - 0 represent cell death. For example, a value of 40 represents 60% growth inhibition. […]
The panel holds about 83,000 compounds, 20% with a hit somewhere; the sample as a whole holds those more often. Activity calls are given as the source filed them. How the source made its calls: active means growth percent below 10; inactive means the rest.
Lab note: assign the record to one of active, inactive

Could you please tell me the result logged for CCc1ccc(CNCC(O)c2ccccc2)cc1 (stereo unspecified) in this assay?
inactive

Could you please tell me the result logged for COC(=O)/C(CCC=C(C)C)=C1\[C@@H](OC(C)=O)C[C@@]2(C)[C@H]1CC(=O)N[C@H]1[C@@]3(C)CCNC(=O)[C@@H](C)[C@@H]3CC[C@@]12C in this assay?
inactive

Could you please tell me the result logged for CCCCCCCCCCCCCCn1cc(C2=C(c3coc4ccc(OC)cc34)C(=O)NC2=O)c2ccccc21 in this assay?
inactive

Could you please tell me the result logged for Cc1ccc(Nc2nc(N)c3ccccc3n2)cc1Cl in this assay?
inactive

Could you please tell me the result logged for CCN1C(=O)N(CC)C2C1NC(=S)N2/N=C/C=C/c1ccccc1OC (stereo unspecified) in this assay?
active

Could you please tell me the result logged for CCOC(=O)c1cc2c(n1Cc1cc(OC)cc(OC)c1)-c1oncc1CCC2 in this assay?
inactive

Could you please tell me the result logged for Cc1ccc(S(=O)(=O)c2c(COC(=O)c3cccc(C)c3)c(-c3ccccc3)nn2C)cc1 in this assay?
inactive

Could you please tell me the result logged for Oc1c(C(Nc2ccccn2)c2cccc(Oc3ccccc3)c2)ccc2cccnc12 (stereo unspecified) in this assay?
active

Could you please tell me the result logged for Nc1nc2c(ncn2[C@@H]2O[C@H](CS)[C@@H](O)[C@H]2O)c(=O)[nH]1 in this assay?
inactive

Could you please tell me the result logged for Cc1ccc2cc3c(N)c4c(C)ccc(C)c4nc3nc2c1 in this assay?
inactive

Could you please tell me the result logged for O=C(Nc1ccc(N2CCNCC2)cc1)c1[nH]ncc1Nc1cc(C2CC2)ncn1 in this assay?
inactive

###

tested on: SN12C renal; test: NCI-60 one-dose screen, 48 h; settings: 10 µM unless noted
This is part of a sample that, as a whole, favours compounds with a hit. Of some 83,000 tested, about 20% had one in any assay. Calls of active or inactive are those of the source. Rule for the calls: active = growth percent below 10; inactive = the rest.
Lab note: assign the record to one of active, inactive

Could you please tell me the result logged for COc1ccc(OC)c(/C=C/C(=O)c2c(C)nc3ccccc3c2/C=C/c2ccccc2)c1 in this assay?
inactive

Could you please tell me the result logged for Nc1ccc(-n2c(=O)oc3ccc(Cl)cc3c2=O)c(Cl)c1 in this assay?
active

Could you please tell me the result logged for O=C(COc1cc(O)c2c(=O)cc(-c3ccccc3)oc2c1)Nc1ccccc1C(F)(F)F in this assay?
inactive

Could you please tell me the result logged for Fc1ccc(Oc2ccc(Nc3ncnc4onc(-c5ccccc5)c34)cc2)cc1 in this assay?
inactive

Could you please tell me the result logged for Clc1ccc(Oc2ccc(Nc3ncnc4onc(-c5ccccc5)c34)cc2)c(Cl)c1 in this assay?
inactive

Could you please tell me the result logged for O=c1c(-c2nc3ccccc3[nH]2)cc2ccccc2n1Cc1cn(Cc2ccc(N3CCOCC3)cc2)nn1 in this assay?
inactive

Could you please tell me the result logged for CCOC(=O)c1cnc2c(C)cccc2c1Nc1ccc(C(C)=O)cc1 in this assay?
inactive

Could you please tell me the result logged for NCCOc1ncccc1/C=C1\c2ccccc2-c2ccc(F)cc21 in this assay?
active

Could you please tell me the result logged for COc1ccc(C2c3ccc4ccccc4c3Oc3ncn(CCCn4ccnc4)c(=N)c32)cc1OC (stereo not drawn) in this assay?
inactive

Could you please tell me the result logged for COc1ccc(OC)c(NC(=O)/C(C#N)=C/c2ccco2)c1 in this assay?
inactive

Could you please tell me the result logged for COc1cccc(C2=NN3C(C2)c2ccccc2OC3c2ccc(/C=C3\SC(=O)NC3=O)cc2)c1 (stereo not drawn) in this assay?
inactive

Could you please tell me the result logged for Nc1ncnc(N)c1NC(=O)c1ccc(OCc2ccccc2)cc1 in this assay?
inactive

Could you please tell me the result logged for CC(C)[C@H](NC(=O)Cn1cc(C(=O)O)nn1)C(=O)O in this assay?
inactive

Could you please tell me the result logged for O=c1oc2ccc(I)cc2c(=O)n1-c1ccc(I)cc1F in this assay?
active

Could you please tell me the result logged for O=C(c1nc2ccccc2[nH]1)C1C(c2ccc(F)cc2)C2CC3CCCCC3N2[C@@]12C(=O)Nc1ccc(Cl)cc12 (stereo partly drawn) in this assay?
inactive

Could you please tell me the result logged for O=C1OC(c2ccccc2)(c2ccccc2)c2ccsc21 in this assay?
inactive

Could you please tell me the result logged for COc1ccc(Cn2c(Br)c3c(c2Br)-c2nc(N)sc2CC3)cc1 in this assay?
inactive

Could you please tell me the result logged for CCN1CCN(C(=S)SCC(=O)Nc2nc3ccc(C)cc3s2)CC1 in this assay?
inactive

###

test system: OVCAR-5 ovarian; test: NCI-60 one-dose screen, 48 h (100 = growth as untreated, 0 = no growth, -100 = all killed); conditions: 10 µM unless noted
About 83,000 compounds went through this panel and 20% of them were active in at least one assay; those are over-represented in the sample as a whole.
Kindly apply the following: 1 (yes) if growth is less than 40%, 0 (no) in every other case.

Criterion: growth strictly below 40%. Is it met by Nc1ccc(-n2c(=O)oc3ccc(Cl)cc3c2=O)c(Cl)c1 ?
1 (yes)

Criterion: growth strictly below 40%. Is it met by COC(=O)c1cc2c(n1Cc1ccccc1)-c1oncc1CCC2 ?
0 (no)

Criterion: growth strictly below 40%. Is it met by CCN1C(=O)N(CC)C2C1NN=c1s/c(=C3\C(=O)N(CC(C)(C)C)c4ccccc43)c(=O)n12 (stereo not given) ?
0 (no)

Criterion: growth strictly below 40%. Is it met by NCCOc1ccccc1/C=C1\c2ccccc2-c2ccc([N+](=O)[O-])cc21 ?
1 (yes)

Criterion: growth strictly below 40%. Is it met by COC(=O)C1=Nc2ccc(F)cc2/C1=C/c1sc(=S)[nH]c1O ?
0 (no)

###

system: SF-295 CNS; test: NCI-60 one-dose screen, 48 h (100 = growth as untreated, 0 = no growth, -100 = all killed); conditions: 10 µM unless noted
This is part of a sample that, as a whole, favours compounds with a hit. Of some 83,000 tested, about 20% had one in any assay.
Param threshold (60%) applies to growth; output Criterion met when value >= threshold, Criterion not met when value < threshold.

API: above_or_equal(metric=growth, cutoff=60%) for item Clc1ccc(Nc2nnc(-c3ccc4c(c3)OCO4)o2)cc1
Criterion met

API: above_or_equal(metric=growth, cutoff=60%) for item FC(F)(F)c1cccc(Nc2nc3ccccc3nc2Nc2cccc(C(F)(F)F)c2)c1
Criterion not met

API: above_or_equal(metric=growth, cutoff=60%) for item CCCCC1CCc2cccc3c(SCC(=O)N(C)c4ccc(Cl)cc4)cc[n+]1c23 (configuration not stated)
Criterion met

API: above_or_equal(metric=growth, cutoff=60%) for item Cc1cc2c(c(C)c1Cl)C(=O)/C(=C/c1ccco1)O2
Criterion met

API: above_or_equal(metric=growth, cutoff=60%) for item CCOc1cccc(/C=N\Nc2nc(=O)cc(C(=O)OC)s2)c1O
Criterion not met

API: above_or_equal(metric=growth, cutoff=60%) for item CC(C)CCOc1ccc(-c2n[nH]c(C(F)(F)F)c2-c2cncc(C#N)c2)c(O)c1
Criterion not met

API: above_or_equal(metric=growth, cutoff=60%) for item NS(=O)(=O)c1ccc(CCN=C=S)cc1
Criterion met

API: above_or_equal(metric=growth, cutoff=60%) for item Cn1cc([C@@H]2Nc3ccc4[nH]ncc4c3[C@H]3[C@H]4CCC(C4)[C@H]32)c(C(F)(F)F)n1
Criterion not met

API: above_or_equal(metric=growth, cutoff=60%) for item Cc1ccc2sc3c(NCCCNCCO)nc4ccccc4c3c(=O)c2c1
Criterion met

API: above_or_equal(metric=growth, cutoff=60%) for item Cc1cccc(NC(=O)c2sc3nc4c(cc3c2N)CCCC4)c1C
Criterion not met

API: above_or_equal(metric=growth, cutoff=60%) for item COC(=O)c1c2c(c(C)[n+]([O-])c1C)C(=O)C(NCc1ccc(F)c(F)c1)=CC2=O
Criterion not met

API: above_or_equal(metric=growth, cutoff=60%) for item CN1C(=O)N(C)C2(c3ccccc3)OC(=S)NC12c1ccccc1 (configuration not stated)
Criterion met

###

Could you please report measured growth for the items listed next?
system: MOLT-4 leukemia; test: NCI-60 one-dose screen, 48 h (100 = growth as untreated, 0 = no growth, -100 = all killed); details: 10 µM unless noted
This is part of a sample that, as a whole, favours compounds with a hit. Of some 83,000 tested, about 20% had one in any assay. Active and inactive are the calls of the source. The calls were made as follows: active = growth percent below 10; inactive = the rest.

So what's the measured growth for this one? CN(C)CCCNCc1ccc(-c2ccc(F)c(Cl)c2)o1
-4.5% (active)

So what's the measured growth for this one? COc1ccc(C2C3=C(COC3=O)N(CCO)c3cc4c(cc32)OCCO4)cc1 (configuration not stated)
81.9% (inactive)

So what's the measured growth for this one? CN(C)c1ccc(/C=C/c2ccnc3c(O)cccc23)cc1
-13.2% (active)

So what's the measured growth for this one? Cc1cc2c(c(C)c1Cl)C(=O)/C(=C/c1ccco1)O2
97.3% (inactive)

So what's the measured growth for this one? CCOc1cc(Cl)c(C(C)NC(=O)c2cccc(OC)c2)cc1OCC (configuration not stated)
-10.2% (active)

So what's the measured growth for this one? Cc1ccc(C(=O)c2oc3ccc4c(C)cc(=O)oc4c3c2C)cc1
7.13% (active)

So what's the measured growth for this one? CN1CCN(c2nc(Nc3ccc(O)cc3)nc3ccccc23)CC1
98.4% (inactive)

So what's the measured growth for this one? CC(=O)SC1CC(=O)C=C2CCC3C4CCC(=O)OC4(C)CCC3C21C (configuration not stated)
105% (inactive)

So what's the measured growth for this one? COc1cc(C(=O)Nc2ccc(-c3nc4ccccc4[nH]3)cc2)cc(OC)c1OC
41.3% (inactive)

So what's the measured growth for this one? CCn1c(SCC(=O)Nc2cc(C(F)(F)F)ccc2Cl)nc2ccccc2c1=O
-7.72% (active)

So what's the measured growth for this one? O=C1c2cc(Cl)ccc2Oc2cc([N+](=O)[O-])ccc2N1c1ccc(F)cc1F
57.4% (inactive)

So what's the measured growth for this one? CN(C)CCNc1cc(-c2ccccc2)nc2ccccc12
0.855% (active)

So what's the measured growth for this one? NCCOc1ccccc1/C=C1\c2ccccc2-c2ccc([N+](=O)[O-])cc21
-14.1% (active)

So what's the measured growth for this one? O=c1nc2sc3nc4ccccc4cc3cc-2s1
120% (inactive)

So what's the measured growth for this one? CCCCCCc1cc2cc(-c3csc(/C=C/c4ccccc4)n3)c(=O)oc2cc1O
4.75% (active)

So what's the measured growth for this one? Cc1ccc(S(=O)c2ccc([N+](=O)[O-])c3nonc23)cc1 (configuration not stated)
-3.44% (active)

So what's the measured growth for this one? Cc1c(-c2noc(-c3ccc([N+](=O)[O-])cc3)n2)no[n+]1[O-]
101% (inactive)

So what's the measured growth for this one? c1ccc2c(c1)oc1cc3sccc3nc12
97.7% (inactive)

So what's the measured growth for this one? COc1ccc2oc(=O)cc(Cn3cc(Cn4cnc5c4c(=O)n(C)c(=O)n5C)nn3)c2c1
103% (inactive)

So what's the measured growth for this one? CN1C(=O)N(C)C2C1NN=c1s/c(=C\c3ccc(Cl)cc3Cl)c(=O)n12 (configuration not stated)
13.1% (inactive)

So what's the measured growth for this one? COc1ccc(/C=C2/SC(=O)N(CC(=O)N3CCN(c4cc5c(cc4F)c(=O)c(C(=O)O)cn5C4CC4)CC3)C2=O)cc1
108% (inactive)

So what's the measured growth for this one? CN1C(=O)N(C)C2(c3ccccc3)OC(=S)NC12c1ccccc1 (configuration not stated)
103% (inactive)

So what's the measured growth for this one? COc1cccc(C2=NN3C(C2)c2ccccc2OC3c2ccc(/C=C3\SC(=O)NC3=O)cc2)c1 (configuration not stated)
96.9% (inactive)

So what's the measured growth for this one? O=C(CSc1nc2ccccc2c(=O)n1-c1ccccc1)Nc1ccc(C(=O)/C=C/c2ccc(Cl)cc2)cc1
99.5% (inactive)

So what's the measured growth for this one? NS(=O)(=O)c1ccc(CCN=C=S)cc1
16.3% (inactive)

So what's the measured growth for this one? O=C(CSc1ncccc1C(=O)O)Nc1ccc(Oc2ccccc2)cc1
84.6% (inactive)

So what's the measured growth for this one? COc1ccc(Cn2c(Br)c3c(c2-c2cc(OC)c(OC)c(OC)c2)CCc2sc(NC(C)=O)nc2-3)cc1
45.1% (inactive)
